Origin of values: BindingDB's records for doi:10.1021/jm100555f

- Assay Notes: Inhibition of Bcr-Abl in mouse BA/F3 cells
pEC50: −log10 of the molar value.
Measured Property: pEC50

Please review the entries below; each comes with its answer.
CC(C)(C)n1ncc2c(Nc3ccc(OC(F)(F)F)cc3)ncnc21 ... 6.80
FC(F)(F)Oc1ccc(Nc2cc(-c3ccncc3)ncn2)cc1 ... 6.33
NS(=O)(=O)c1cccc(-c2cc(Nc3ccc(OC(F)(F)F)cc3)ncn2)c1 ... 6.24
O=C(c1cc2c(Nc3ccc(OC(F)(F)F)cc3)ncnc2s1)N1CCC(O)CC1 ... 5.71
FC(F)(F)c1ccc(Nc2cc(-c3ccncc3)ncn2)cc1 ... 5.90
FC(F)(F)Oc1ccc(Nc2ncnc3c2cnn3C2CCCCC2)cc1 ... 6.40

a: NC(=O)c1cccc(Nc2cc(Nc3ccc(OC(F)(F)F)cc3)ncn2)c1
b: CNC(=O)c1cccc(-c2cc(Nc3ccc(OC(F)(F)F)cc3)ncn2)c1
Query block: Which item exceeds the other in pEC50, a or b ? Identify your pick by its label.
Result block: b

====

- Assay Notes: Inhibition of Bcr-Abl in mouse BA/F3 cells
pEC50: −log10 of the molar value.
Measured Property: pEC50

CCCn1cc2c(Nc3ccc(OC(F)(F)F)cc3)ncnc2n1 ... 6.80
NC(=O)Cn1cc2c(Nc3ccc(OC(F)(F)F)cc3)ncnc2n1 ... 5.36
Cc1c(-c2cc(Nc3ccc(OC(F)(F)F)cc3)ncn2)cnn1-c1ccccc1 ... 6.09
FC(F)(F)Oc1ccc(Nc2cc(-c3cn[nH]c3)ncn2)cc1 ... 7.05
FC(F)(F)Oc1ccc(Nc2ncnc3c2cnn3CC2CCOC2)cc1 (stereo unspecified) ... 6.16

P: Cn1ccc2c(Nc3ccc(OC(F)(F)F)cc3)ncnc21
Q: NC(=O)Cn1ncc2c(Nc3ccc(OC(F)(F)F)cc3)ncnc21
R: FC(F)(F)Oc1ccc(Nc2cc(-c3ccnc4[nH]ccc34)ncn2)cc1
Query block: Endpoint returns the given compounds ordered by ascending pEC50. Present the labels in the sequence the task asks for.
Result block: P, Q, R
(P: 5.16, Q: 6.46, R: 6.77)

I: NC(=O)c1ccc(-c2cc(Nc3ccc(OC(F)(F)F)cc3)ncn2)cc1
II: NS(=O)(=O)c1ccc(-c2cc(Nc3ccc(OC(F)(F)F)cc3)ncn2)cc1
Query block: Which gives the smaller pEC50 number: I or II ? Label of pick, please.
Result block: I
(I: 6.32, II: 6.92)

====

- Assay Notes: Inhibition of Bcr-Abl in mouse BA/F3 cells
pEC50: −log10 of the molar value.
Measured Property: pEC50

Solved cases (5 shown):
Cc1nc(-c2cc(Nc3ccc(OC(F)(F)F)cc3)ncn2)cs1 ... 5.91
Cc1c(NCCN2CCOCC2)ncnc1Nc1ccc(OC(F)(F)F)cc1 ... 6.01
FC(F)(F)c1ccc(Nc2cc(NCCN3CCOCC3)ncn2)cc1 ... 6.04
FC(F)(F)Oc1ccc(Nc2ncnc3nn(C4CCCCC4)cc23)cc1 ... 5.66
O=C(c1cccc(-c2cc(Nc3ccc(OC(F)(F)F)cc3)ncn2)c1)N1CCOCC1 ... 6.62

I: NC(=O)CCn1ccc2c(Nc3ccc(OC(F)(F)F)cc3)ncnc21
II: NC(=O)c1cccc(Oc2cc(Nc3ccc(OC(F)(F)F)cc3)ncn2)c1
Query block: Please indicate which has the smaller reported pEC50: I , or II . Kindly state the label of the option you pick.
Result block: II
(II: 5.30, I: 6.31)
